Value source: ChEMBL document CHEMBL1146164

Molecular target: Peroxisome proliferator-activated receptor gamma (Homo sapiens, UniProt P37231)
Sequence (P37231 whole entry): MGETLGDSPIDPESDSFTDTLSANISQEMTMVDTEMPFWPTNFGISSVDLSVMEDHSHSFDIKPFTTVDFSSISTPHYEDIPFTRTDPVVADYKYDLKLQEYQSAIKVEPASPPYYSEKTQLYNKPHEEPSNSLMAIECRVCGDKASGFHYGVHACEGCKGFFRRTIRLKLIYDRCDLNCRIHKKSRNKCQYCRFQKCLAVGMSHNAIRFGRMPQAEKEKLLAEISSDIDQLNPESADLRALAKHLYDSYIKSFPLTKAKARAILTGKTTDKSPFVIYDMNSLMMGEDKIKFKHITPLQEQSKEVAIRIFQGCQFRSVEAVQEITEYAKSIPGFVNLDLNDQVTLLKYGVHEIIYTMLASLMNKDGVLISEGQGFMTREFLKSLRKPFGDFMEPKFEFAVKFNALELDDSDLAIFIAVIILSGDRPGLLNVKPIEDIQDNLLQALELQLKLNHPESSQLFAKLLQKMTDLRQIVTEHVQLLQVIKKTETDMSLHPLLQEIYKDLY
pIC50 values for the compounds below.
Units for pIC50: none; it is -log10 of a concentration expressed in mol/L.

Worked cases, pIC50 given:
query_smiles=Cc1oc(-c2ccc(-c3ncccn3)cc2)nc1CCOc1ccc(CCC(=O)O)c(CNC(=O)OC(C)C)c1 endpoint=pIC50 result_value=7.30
query_smiles=Cc1oc(-c2ccc(-c3ccccc3)cc2)nc1CCOc1ccc(CCC(=O)O)c(CNC(=O)Oc2cnccn2)c1 endpoint=pIC50 result_value=7.59
query_smiles=Cc1oc(-c2ccc(Oc3ccccc3)cc2)nc1CCOc1ccc(CCC(=O)O)c(CNC(=O)OC(C)C)c1 endpoint=pIC50 result_value=7.30
query_smiles=Cc1oc(-c2ccccc2)nc1CCOc1ccc(CCC(=O)O)c(CNC(=O)OC(C)C)c1 endpoint=pIC50 result_value=7.59
query_smiles=Cc1oc(-c2ccccc2)nc1CCOc1ccc(CCC(=O)O)c(CNC(=O)OCc2ccccc2)c1 endpoint=pIC50 result_value=7.04

Now turn to the next compound.
Req: Find pIC50 for Cc1oc(-c2ccccc2)nc1CCOc1ccc(CCC(=O)O)c(CNC(=O)Oc2cnccn2)c1 on Peroxisome proliferator-activated receptor gamma (Homo sapiens, UniProt P37231) and write it down.
Resp: 7.77
